Provenance of the data: patent US20210054097A1

Biological target: T1, FX activation peptide 12-mer ITWKPYDAADLD (human)
T1 peptide: ITWKPYDAADLD-biotin
Assay: peptide ELISA
Ends that are not written are not given here.
# cutoff 1 applies to ELISA signal relative to background; >= gives satisfied, < gives not satisfied

[[record]]
binder = "Nb 730C03 (VHH, monovalent Nanobody; also called Nb 730003; not shown: C-terminal FLAG3 and HIS6 tag) VHH: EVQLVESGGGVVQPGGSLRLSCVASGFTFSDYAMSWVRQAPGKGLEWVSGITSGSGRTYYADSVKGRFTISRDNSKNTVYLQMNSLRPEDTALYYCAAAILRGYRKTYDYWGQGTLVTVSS"
assigned_category = "satisfied"

[[record]]
binder = "Nb 501A02 (VHH, monovalent control Nanobody; also called control Nanobody; not shown: C-terminal FLAG3 and HIS6 tag) VHH: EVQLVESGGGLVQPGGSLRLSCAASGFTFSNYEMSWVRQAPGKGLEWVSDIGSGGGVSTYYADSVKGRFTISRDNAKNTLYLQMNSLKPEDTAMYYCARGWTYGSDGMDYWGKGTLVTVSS"
assigned_category = "not satisfied"

[[record]]
binder = "Nb 701D07 (VHH, monovalent Nanobody; not shown: C-terminal FLAG3 and HIS6 tag) VHH: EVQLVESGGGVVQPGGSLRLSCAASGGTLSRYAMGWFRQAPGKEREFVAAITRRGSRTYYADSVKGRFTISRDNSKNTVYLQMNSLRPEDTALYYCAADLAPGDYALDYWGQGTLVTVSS"
assigned_category = "not satisfied"

[[record]]
binder = "Nb 702C12 (VHH, monovalent Nanobody; not shown: C-terminal FLAG3 and HIS6 tag) VHH: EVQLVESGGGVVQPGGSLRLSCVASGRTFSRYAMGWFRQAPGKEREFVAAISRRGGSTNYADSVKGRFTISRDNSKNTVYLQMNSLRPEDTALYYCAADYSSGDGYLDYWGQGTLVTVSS"
assigned_category = "satisfied"

[[record]]
binder = "Nb 701C06 (VHH, monovalent Nanobody; not shown: C-terminal FLAG3 and HIS6 tag) VHH: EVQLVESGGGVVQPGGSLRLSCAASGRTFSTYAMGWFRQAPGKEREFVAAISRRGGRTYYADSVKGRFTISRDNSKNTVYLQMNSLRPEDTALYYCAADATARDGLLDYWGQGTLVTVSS"
assigned_category = "satisfied"

[[record]]
binder = "Nb 729A04 (VHH, monovalent Nanobody; not shown: C-terminal FLAG3 and HIS6 tag) VHH: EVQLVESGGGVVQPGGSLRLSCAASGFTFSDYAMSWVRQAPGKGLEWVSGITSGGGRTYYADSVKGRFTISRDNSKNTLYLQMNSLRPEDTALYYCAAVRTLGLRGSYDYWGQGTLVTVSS"
assigned_category = "satisfied"

[[record]]
binder = "Nb 729C08 (VHH, monovalent Nanobody; also called Nb 729008; not shown: C-terminal FLAG3 and HIS6 tag) VHH: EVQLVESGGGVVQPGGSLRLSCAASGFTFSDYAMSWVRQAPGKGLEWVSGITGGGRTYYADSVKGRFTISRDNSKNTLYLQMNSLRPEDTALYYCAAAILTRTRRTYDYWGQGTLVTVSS"
assigned_category = "satisfied"

[[record]]
binder = "Nb 701B09 (VHH, monovalent Nanobody; also called Nb 701609; not shown: C-terminal FLAG3 and HIS6 tag) VHH: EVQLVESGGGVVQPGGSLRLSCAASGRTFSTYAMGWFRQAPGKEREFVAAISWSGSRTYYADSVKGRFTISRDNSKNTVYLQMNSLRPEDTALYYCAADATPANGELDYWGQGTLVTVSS"
assigned_category = "not satisfied"

